human CYP2C19 (Homo sapiens): reported CYP2C19 AC50 (half-maximal activity concentration) for various compounds.

These recorded examples may help you get a feel for the data.
- compound: "Cc1ccc(C(=O)O)cc1[N+](=O)[O-]"
  target_desc: "human CYP2C19 (Homo sapiens)"
  result: "Inactive"
- compound: "O=c1[nH]c2ccccc2n1CCCN1CCN(C(c2ccccc2)c2ccccc2)CC1 [Oxatomide]"
  target_desc: "human CYP2C19 (Homo sapiens)"
  result: "Inconclusive inhibitor"
- compound: "CCOC(=O)COc1ccc2c(C)c(CCN(CC)CC)c(=O)oc2c1Cl.Cl [Cloricromen hydrochloride]"
  target_desc: "human CYP2C19 (Homo sapiens)"
  result: "Inactive"
- compound: "CCSC(=O)N(CC)C1CCCCC1 [Cycloate]"
  target_desc: "human CYP2C19 (Homo sapiens)"
  result: "Inconclusive inhibitor"
- compound: "Cc1ccc(Cl)c(Nc2ccccc2C(=O)O)c1Cl [Meclofenamate sodium]"
  target_desc: "human CYP2C19 (Homo sapiens)"
  result: "Inactive"

// query Provide one value: measured CYP2C19 AC50 (half-maximal activity concentration) of CCOC(=O)CC(=O)Cc1cc(F)c(Cl)nc1Cl
// result Inconclusive inhibitor

====

human CYP1A2 (Homo sapiens, UniProt P05177): reported CYP1A2 AC50 (half-maximal activity concentration) for various compounds.
Sequence (P05177 whole entry): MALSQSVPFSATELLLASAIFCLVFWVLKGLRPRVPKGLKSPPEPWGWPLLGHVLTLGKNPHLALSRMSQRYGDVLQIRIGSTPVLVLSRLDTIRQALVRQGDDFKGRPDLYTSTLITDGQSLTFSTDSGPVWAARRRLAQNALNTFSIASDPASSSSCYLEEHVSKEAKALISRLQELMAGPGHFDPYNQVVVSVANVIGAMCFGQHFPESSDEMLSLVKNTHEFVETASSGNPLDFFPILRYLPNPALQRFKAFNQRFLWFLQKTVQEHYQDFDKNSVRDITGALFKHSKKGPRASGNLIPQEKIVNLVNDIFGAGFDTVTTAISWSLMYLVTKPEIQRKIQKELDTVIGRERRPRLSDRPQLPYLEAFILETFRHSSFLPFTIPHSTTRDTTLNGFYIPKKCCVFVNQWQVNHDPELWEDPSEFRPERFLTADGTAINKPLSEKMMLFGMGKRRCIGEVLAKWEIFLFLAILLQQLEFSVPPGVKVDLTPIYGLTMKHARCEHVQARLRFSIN

These recorded examples may help you get a feel for the data.
- compound: "CC(=O)OC(c1ccccc1)C(Cl)(Cl)Cl (stereo not drawn) [2,2,2-Trichloro-1-phenylethyl acetate]"
  result: "Inactive"
- compound: "Cc1cccc(C)c1NC(=O)CN1CCN(CCCC(c2ccc(F)cc2)c2ccc(F)cc2)CC1"
  result: "Inactive"
- compound: "CCC1(c2ccccc2)CCC(=O)NC1=O (stereo not drawn) [Glutethimide]"
  result: "Inactive"
- compound: "COC(=O)C(C)N(C(=O)c1ccco1)c1c(C)cccc1C (stereo not drawn)"
  result: "Inconclusive inhibitor"
- compound: "CCOc1ccc(C(C)(C)COCc2cccc(Oc3ccccc3)c2)cc1"
  result: "Inconclusive inhibitor"

// query Provide one value: measured CYP1A2 AC50 (half-maximal activity concentration) of CC(=O)O[C@H]1CC[C@@]2(C)C(=CC[C@@H]3[C@@H]2CC[C@]2(C)C(=O)CC[C@@H]32)C1 [Dehydroepiandrosterone acetate]
// result Inconclusive inhibitor

// query Provide one value: measured CYP1A2 AC50 (half-maximal activity concentration) of O=S(=O)(c1ccccc1)c1ccccc1
// result Inactive

====

- target_desc: UniProtKB P05177
- run_description: biochemical
pIC50: −log10 of the molar value.
Response key: MET means pIC50 >= 6; NOT MET means pIC50 < 6.

// query Check the entry C=CC(=O)OCCn1c(=O)n(CCOC(=O)C=C)c(=O)n(CCOC(=O)C=C)c1=O : does pIC50 equal or exceed 6?
// result NOT MET

// query Check the entry O=C1c2ccccc2-c2ccccc21 : does pIC50 equal or exceed 6?
// result MET

// query Check the entry O=C(OCC(O)CO)c1ccccc1Nc1ccnc2c(C(F)(F)F)cccc12 (centres unmarked) : does pIC50 equal or exceed 6?
// result NOT MET

====

- target_desc: human CYP2C19 (Homo sapiens, UniProt P33261)
- Sequence (P33261 whole entry): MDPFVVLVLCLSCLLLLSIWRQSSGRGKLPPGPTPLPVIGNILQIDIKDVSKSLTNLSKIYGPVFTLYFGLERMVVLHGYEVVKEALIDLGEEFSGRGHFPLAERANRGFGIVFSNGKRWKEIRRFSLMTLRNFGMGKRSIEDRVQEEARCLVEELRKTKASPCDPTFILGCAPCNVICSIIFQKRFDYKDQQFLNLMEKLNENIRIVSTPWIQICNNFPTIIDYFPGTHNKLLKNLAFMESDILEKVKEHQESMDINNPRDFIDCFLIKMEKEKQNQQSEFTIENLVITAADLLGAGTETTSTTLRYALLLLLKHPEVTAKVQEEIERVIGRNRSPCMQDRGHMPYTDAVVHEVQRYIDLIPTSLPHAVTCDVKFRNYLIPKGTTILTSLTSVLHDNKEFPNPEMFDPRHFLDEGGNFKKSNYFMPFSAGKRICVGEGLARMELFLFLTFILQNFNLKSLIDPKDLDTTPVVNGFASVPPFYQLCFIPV
- run_description: biochemical
- condition_set: CYP2C19 AC50 (half-maximal activity concentration)
measured_quantity: log10 AC50 (log10 of the value in µM)
# values: log10(AC50), units µM

// query Provide one value: measured log10 AC50 of O=C1c2ccccc2C(=O)C1C(=O)C(c1ccccc1)c1ccc(Cl)cc1 (stereo not shown)
// result 1.04

// query Provide one value: measured log10 AC50 of CCC(C)c1ccc(O)cc1 (stereo not shown)
// result 0.54

// query Provide one value: measured log10 AC50 of CC(C)OC(=O)c1ccccc1C(=O)OC(C)C [Diisopropyl phthalate]
// result 1.73

// query Provide one value: measured log10 AC50 of O=C(/C=C/c1ccccc1)OCc1ccccc1 [Benzyl cinnamate]
// result 1.13

// query Provide one value: measured log10 AC50 of Cc1cccc2sc(N)nc12
// result 1.44

// query Provide one value: measured log10 AC50 of O=C(CCN1CCC(c2ccccc2)C1)c1ccc2c(c1)OCCO2 (stereo not shown)
// result 1.59

// query Provide one value: measured log10 AC50 of O=C1C=CC(=O)N1c1ccc(Cc2ccc(N3C(=O)C=CC3=O)cc2)cc1 [Bismaleimide]
// result 0.92

// query Provide one value: measured log10 AC50 of COc1ccc(C(=O)c2ccc(C)cc2)c(O)c1
// result 0.77

// query Provide one value: measured log10 AC50 of CCOC(=O)C1OC1(C)c1ccccc1 (stereo not shown) [Ethyl methylphenylglycidate]
// result 1.66

// query Provide one value: measured log10 AC50 of CC(C)OC(=O)COc1ccc(Cl)cc1Cl
// result 1.19
